Below, each entry is listed alongside its reported TGI.
# System: K-562 leukemia
# TEST DESCRIPTION: NCI tumour cell line growth inhibition, 48 h

Worked cases, TGI given:
1. Cc1ccc(C2=Nc3ccccc3SC(c3cccc4c3OCO4)C2)cc1 (stereo not given); 38.3 µM
2. N#C/C(=C1\OC(=N)C(c2ccc(Cl)cc2Cl)C1=O)c1ccc(Cl)cc1Cl (stereo not given); > 100 µM
3. S=C(NCc1ccc2c(c1)OCO2)N1CCN(c2ncnc3c2oc2ccccc23)CC1; > 100 µM
4. O=S(=O)(O)c1ccc2cc(N=Nc3c(O)ccc4ccccc34)ccc2c1; > 100 µM
5. CC(=O)O[C@@H]1[C@H]2[C@@H](OC(=O)c3ccccc3)[C@@H](C)C[C@]2(O)[C@H](OC(C)=O)[C@@]2(C)[C@@H]3C[C@@](C)(OC(C)=O)C[C@@H](OC(C)=O)[C@@]3(OC(C)=O)C[C@@]12C; > 10 µM
6. Nc1[nH]c(=O)[nH]c(=O)c1Cc1cccc(Cl)c1; > 100 µM

Let us examine a further case.
Report value only: TGI, K-562 leukemia, O=C(O)C12CC3CC(C1)C2C=C3P(=O)(O)O (stereo not given)
> 100 µM

###

# System: CCRF-CEM leukemia
# TEST DESCRIPTION: NCI tumour cell line growth inhibition, 48 h
MEASURE NAME: GI50

Solved cases below.
1) O=S(=O)(O)c1ccc2cc3nn(-c4ccc(/C=C/c5ccc(-n6nc7cc8ccc(S(=O)(=O)O)cc8cc7n6)cc5S(=O)(=O)O)c(S(=O)(=O)O)c4)nc3cc2c1; 30.8 µM
2) CN1CCCC1c1cccnc1.O=C(O)c1ccccc1O.O=C([O-])c1ccccc1[OH2+].O=C([O-])c1ccccc1[OH2+].[Mn+2] (stereo unspecified); 24.8 µM
3) O=C1c2ccccc2C(=O)c2c1cc1c(c2[N+](=O)[O-])OCO1; 0.492 µM
4) COc1ccc(-c2c3c(N)c4c(nc3nc3c2c(C)nn3-c2ccccc2)CCCC4)cc1; 2.18 µM
5) O=C1C(Nc2cccc(O)c2)=C(Sc2ccccc2)C(=O)N1Cc1ccccc1; 1.88 µM

# return recorded GI50 for input C=CCN(CC=C)C(=O)[C@H](CC)[C@@H]1CC[C@@H](C)[C@@H]([C@H](C)[C@@H](O)[C@@H](C)C(=O)[C@H](CC)C2O[C@]3(C=C[C@@H](O)[C@]4(CC[C@@](C)([C@H]5CC[C@](O)(CC)[C@H](C)O5)O4)O3)[C@H](C)C[C@@H]2C)O1 (stereo partly specified)
3.19 µM

###

# System: SNB-75 CNS
# TEST DESCRIPTION: NCI tumour cell line growth inhibition, 48 h
MEASURE NAME: GI50

1. CN(C)CCCn1c2c(c3cc4c(cc3c1=O)OCO4)C(=O)c1ccccc1-2; 5.89 µM
2. C=C1C(=O)O[C@H]2[C@H]1CC/C(COC(=O)NCc1c[nH]c3ccc(F)cc13)=C\CC[C@@]1(C)O[C@@H]21; 1.33 µM
3. CC(C)N(Cc1ccc(F)cc1)c1ccc(CO)c(Cl)c1; 9.21 µM
4. COc1cc(C(=O)/C=C/c2c(C(F)(F)F)nc3ccccn23)cc(OC)c1OC; 1.76 µM

Moving on to the next compound.
Print SNB-75 CNS GI50 for CCN(Cc1ccc(F)cc1)c1ccc(CO)c(C(F)(F)F)c1 .
14.3 µM

This collection of values is drawn from PubChem BioAssay (NCI).
